# reported protein stability index; entries follow
B1: KLHL14 (parent)
chain: WLYCYDPVMDVWARKQDMNTKRAI

Variants of: B1
test_description: protein stability index of a GFP-peptide fusion (GPS, HEK-293T) (PSI 1-6); higher = more stable;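 also: lentivirally expressed fusions sorted by FACS into six bins by GFP to DsRed ratio, PSI derived from sequencing read proportions per bin multiplied by bin number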
stated_conditions: c terminus: a fixed tail appended

T20M | 1.7

Name the reported protein stability index value associated with the variant Y5Q
1.6

Name the reported protein stability index value associated with the variant M9P
2.32

Name the reported protein stability index value associated with the variant V8C
1.81

Name the reported protein stability index value associated with the variant L2H
2.35

Name the reported protein stability index value associated with the variant W12R
1.78

Name the reported protein stability index value associated with the variant Q16Y
1.69

Name the reported protein stability index value associated with the variant T20K
2.15

Name the reported protein stability index value associated with the variant D6Q
2.29

Name the reported protein stability index value associated with the variant A13K
2.52

Name the reported protein stability index value associated with the variant R22S
2.12

Name the reported protein stability index value associated with the variant N19G
2

Name the reported protein stability index value associated with the variant R14D
2.11

Name the reported protein stability index value associated with the variant D10R
2.34
